What % viability under drug was measured for each of the following?
Tested on: EVSA-T
test_details: % viability under drug (72 h drug + 72 h recovery), miRNA mimic relative to NTC in DMSO; higher = more surviving cells
condition_notes: drug used in drug arm: GDC-0980 2.5 uM; treatment: drug

[in] Give EVSA-T % viability under drug for `AAAAGUAAUUGUGGUUUUUGCC`
[out] 0.358%

[in] Provide the documented % viability under drug with EVSA-T as the system for `GAAUGUUGCUCGGUGAACCCCU`
[out] 0.08%

[in] Param readout = % viability under drug; param system = EVSA-T; param query = `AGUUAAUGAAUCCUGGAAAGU` ; response: value
[out] 0.344%

[in] Record lookup: for EVSA-T, what % viability under drug belongs to `CAAAAGUAAUUGUGGAUUUUGU` ?
[out] 0.243%

[in] Quick check: % viability under drug on EVSA-T, item `AAAAGUACUUGCGGAUUUUGCU` ?
[out] 1.66%

[in] Observed % viability under drug on EVSA-T for `ACAGUAGAGGGAGGAAUCGCAG` , please.
[out] 0.124%

[in] # returns recorded % viability under drug (system: EVSA-T) for `AAAAGUAAUUGCGGAUUUUGCC`
[out] 0.608%

[in] % viability under drug of `AACGCCAUUAUCACACUAAAUA` on EVSA-T?
[out] 0.459%

[in] EVSA-T / % viability under drug / `UCUACAAAGGAAAGCGCUUUCU` : value?
[out] 1.13%

[in] // fetch EVSA-T % viability under drug for `UAGGUAGUUUCAUGUUGUUGGG`
[out] 0.164%

[in] Field: % viability under drug (EVSA-T). Entry: `GUCAUACACGGCUCUCCUCUCU`
[out] 0.124%

[in] What reported % viability under drug corresponds to `GCGAGGACCCCUCGGGGUCUGAC` on EVSA-T?
[out] 1.21%

[in] Checklist item: % viability under drug tested on EVSA-T, entry `AAGUGCCGCCAUCUUUUGAGUGU` , value?
[out] 0.157%

[in] What reported % viability under drug corresponds to `CAAUGUUUCCACAGUGCAUCAC` on EVSA-T?
[out] 0.155%

[in] Enter reported % viability under drug observed with EVSA-T for `GAGCCAGUUGGACAGGAGC`
[out] 0.0905%

[in] Look up % viability under drug with EVSA-T for this sequence: `UGUCAGUUUGUCAAAUACCCCA`
[out] 0.172%

* * *

Would you mind telling me the reported cell count fold change with erlotinib of each entry?
System: PC9
test_details: cell count fold change with erlotinib, miRNA mimic vs non-targeting control (log2 ratio); higher = more drug-tolerant survivors than NTC
condition_notes: erlotinib 1 µM; 72 h drug + 72 h drug-free recovery; perturbation: miRNA mimic

[in] Quick one: cell count fold change with erlotinib for `UCACUCCUCUCCUCCCGUCUU` ?
[out] -4.11

[in] cell count fold change with erlotinib for `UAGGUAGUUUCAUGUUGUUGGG` ?
[out] -5.25

[in] Query: cell count fold change with erlotinib; subject: `AACAUUCAACGCUGUCGGUGAGU`
[out] -3.99

[in] Request the reported cell count fold change with erlotinib associated with `UAAGUGCUUCCAUGUUUCAGUGG`
[out] -0.141

[in] Look at this sequence and give its reported cell count fold change with erlotinib. `UAGAGUUACACCCUGGGAGUUA`
[out] -3.48

[in] So what's the measured cell count fold change with erlotinib for this one? `UAUGUGCCUUUGGACUACAUCG`
[out] -3.93

[in] Please look up its cell count fold change with erlotinib: `CAUCUUACCGGACAGUGCUGGA`
[out] -0.519

[in] Suppose we examine the sequence `UUUGUGACCUGGUCCACUAACC` ; what cell count fold change with erlotinib value has been reported?
[out] -2.85

[in] Please give the measured cell count fold change with erlotinib for this sequence: `UCACAAUGCUGACACUCAAACUGCUGAC`
[out] -1.47

[in] Which cell count fold change with erlotinib value is on record for `CUCCAGAGGGAAGUACUUUCU` ?
[out] -1.13

[in] Report cell count fold change with erlotinib for `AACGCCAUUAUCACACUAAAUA` please.
[out] 0.733

[in] Requested read-out: cell count fold change with erlotinib. Entry: `UGUAAACAUCCUACACUCUCAGC`
[out] 0.35

[in] GET /values?readout=cell count fold change with erlotinib&item= `AAGCAUUCUUUCAUUGGUUGG`
[out] -1.49

[in] Which cell count fold change with erlotinib value is on record for `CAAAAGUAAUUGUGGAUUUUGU` ?
[out] -2.88

[in] Consider the sequence shown here: `GUGUGCGGAAAUGCUUCUGCUA` What is its recorded cell count fold change with erlotinib?
[out] -2.43

[in] Need cell count fold change with erlotinib of `UUGUGUCAAUAUGCGAUGAUGU` , thanks.
[out] -3.39

[in] Which cell count fold change with erlotinib value is on record for `UGAGACCUCUGGGUUCUGAGCU` ?
[out] -0.719

[in] Return reported cell count fold change with erlotinib; argument: `GCAUGGGUGGUUCAGUGG`
[out] 0.259

[in] // returns reported cell count fold change with erlotinib for input `UGGGUCUUUGCGGGCGAGAUGA`
[out] -0.809

[in] Bench note: what cell count fold change with erlotinib did `GGUGCAGUGCUGCAUCUCUGGU` show?
[out] -1.52

[in] Need cell count fold change with erlotinib of `AGGAUGAGCAAAGAAAGUAGAUU` , thanks.
[out] -2.25

[in] Find the recorded cell count fold change with erlotinib belonging to `AAACCUGUGUUGUUCAAGAGUC` and report it.
[out] -0.0774

[in] What cell count fold change with erlotinib value was documented for this sequence, `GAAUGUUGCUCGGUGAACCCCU` ?
[out] -3.27

[in] Given the entry `UGGGCGUAUCUGUAUGCUA` , report its measured cell count fold change with erlotinib.
[out] -0.274

[in] # query: cell count fold change with erlotinib of entry `UAACUGGUUGAACAACUGAACC`
[out] -0.919

[in] What does the record list as cell count fold change with erlotinib for `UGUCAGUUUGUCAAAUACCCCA` ?
[out] -5.21

[in] Name the recorded cell count fold change with erlotinib for `UCUCUGGGCCUGUGUCUUAGGC` .
[out] 0.808

[in] If you can, please state the reported cell count fold change with erlotinib value of `AGGGGUGGUGUUGGGACAGCUCCGU` .
[out] -0.171

[in] Which cell count fold change with erlotinib reading was recorded for the sequence `CUGAAGUGAUGUGUAACUGAUCAG` ?
[out] -3.44

[in] Query (sequence): `UGGAAGACUAGUGAUUUUGUUGU` ; field requested: cell count fold change with erlotinib
[out] -2.71

[in] Please give the measured cell count fold change with erlotinib for this sequence: `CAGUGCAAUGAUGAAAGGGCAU`
[out] -2.17

[in] I am curious: what cell count fold change with erlotinib value has been reported for `AGUUUUGCAGGUUUGCAUCCAGC` ?
[out] -0.535

// data source = the supplement of paper PMC4976141
